The values you see were collected from patent US9334263B2.

# TARGET: D816V Kit (Homo sapiens, UniProt P10721, D816V)
# Sequence (P10721 26-976 D816V): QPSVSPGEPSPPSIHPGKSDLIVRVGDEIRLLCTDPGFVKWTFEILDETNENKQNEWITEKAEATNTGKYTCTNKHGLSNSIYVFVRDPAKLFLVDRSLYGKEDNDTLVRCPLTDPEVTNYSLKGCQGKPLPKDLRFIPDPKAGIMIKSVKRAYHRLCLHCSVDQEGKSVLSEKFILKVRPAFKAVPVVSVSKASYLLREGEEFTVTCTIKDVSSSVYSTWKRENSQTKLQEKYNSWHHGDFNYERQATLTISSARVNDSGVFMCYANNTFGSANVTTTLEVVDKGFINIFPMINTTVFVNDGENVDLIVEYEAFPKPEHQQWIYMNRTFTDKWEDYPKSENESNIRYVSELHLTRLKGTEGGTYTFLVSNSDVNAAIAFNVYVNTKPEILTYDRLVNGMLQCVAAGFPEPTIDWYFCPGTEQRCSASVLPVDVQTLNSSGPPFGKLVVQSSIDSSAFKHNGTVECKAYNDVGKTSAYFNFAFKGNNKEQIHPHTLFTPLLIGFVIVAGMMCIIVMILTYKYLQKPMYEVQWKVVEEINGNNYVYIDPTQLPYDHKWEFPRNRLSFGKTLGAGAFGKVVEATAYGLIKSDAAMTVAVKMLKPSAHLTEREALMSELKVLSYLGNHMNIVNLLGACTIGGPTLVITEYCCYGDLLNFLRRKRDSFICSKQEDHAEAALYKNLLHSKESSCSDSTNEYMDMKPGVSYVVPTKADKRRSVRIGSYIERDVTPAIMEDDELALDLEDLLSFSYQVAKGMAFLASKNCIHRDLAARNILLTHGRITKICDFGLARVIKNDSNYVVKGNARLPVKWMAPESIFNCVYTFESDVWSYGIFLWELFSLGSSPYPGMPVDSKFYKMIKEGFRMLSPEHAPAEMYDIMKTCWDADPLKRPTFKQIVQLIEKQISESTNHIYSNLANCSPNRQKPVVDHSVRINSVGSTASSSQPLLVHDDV
# PROTOCOL_NOTES: Kit D816V assay at Km (Caliper electrophoretic mobility shift)
# RECORDED_CONDITIONS: 15 uM ATP, 25 C, 90 minutes
Answer each item with its documented IC50.

Below are some compounds; for each one, tell me its IC50.
1. C[C@@](O)(c1ccccc1)c1cnc(N2CCN(c3ncnc(Nc4ccc(N5CCOCC5)cc4)n3)CC2)nc1 [Compound 234]
2. c1nc(Nc2cnn(C[C@@H]3CNCCO3)c2)nc(N2CCN(c3ncc(CCC4CC4)cn3)CC2)n1 [Compound 67]
3. NC(=O)c1cccc(Nc2ncnc(N3CCN(c4ncc(Cc5ccccc5)cn4)CC3)n2)c1 [Compound 23]
4. C[C@H](c1ccccc1)c1cnc(N2CCN(c3ncnc(Nc4ccc(N5CCC[C@@H](O)C5)cc4)n3)CC2)nc1 [Compound 223]

Given back:
1: 1.01 to 10 nM; 2: 10 to 100 nM; 3: 1.01 to 10 nM; 4: 1.01 to 10 nM

Below are some compounds; for each one, tell me its IC50.
1. Nc1cncc(Nc2ncnc(N3CCN(c4ncc(Cc5ccccc5)cn4)CC3)n2)c1 [Compound 13]
2. CC(C)(c1ccccc1)c1cnc(N2CCN(c3ncnc(Nc4ccc([C@@H](O)CO)cc4)n3)CC2)nc1 [Compound 120]
3. Cc1c(Nc2ncnc(N3CCN(c4ncc([C@@](C)(O)c5ccc(F)cc5)cn4)CC3)n2)cnn1C[C@@H]1CNCCO1 [Compound 276]

Given back:
1. < 1 nM
2. < 1 nM
3. 1.01 to 10 nM

----------
Answer each item with its documented pIC50.
# TARGET: D816V Kit (Homo sapiens, UniProt P10721, D816V)
# PROTOCOL_NOTES: Kit D816V assay at Km (Caliper electrophoretic mobility shift)
# RECORDED_CONDITIONS: 15 uM ATP, 25 C, 90 minutes
pIC50: −log10 of the molar value.

Past entries and their recorded results:
COMPOUND	TARGET	pIC50
c1ccc(Cc2cnc(N3CCN(c4ncnc(Nc5ccc6c(c5)CNCC65CC5)n4)CC3)nc2)cc1 [Compound 97]	D816V Kit (Homo sapiens, UniProt P10721, D816V)	> 9.00
c1ccc(Cc2cnc(N3CCN(c4ncnc(Nc5ccc(O[C@H]6CCCNC6)nc5)n4)CC3)nc2)cc1 [Compound 171]	D816V Kit (Homo sapiens, UniProt P10721, D816V)	8.00 to 9.00
c1ccc(Cc2cnc(N3CCN(c4ncnc(Nc5cnn(C[C@H]6CNCCO6)c5)n4)CC3)nc2)cc1 [Compound 123]	D816V Kit (Homo sapiens, UniProt P10721, D816V)	> 9.00

Field: next compound
Asked: I am curious: what pIC50 value has been reported for c1ccc(Sc2cnc(N3CCN(c4ncnc(Nc5cnn(C[C@@H]6CNCCO6)c5)n4)CC3)nc2)cc1 [Compound 199] ?
Given back: 8.00 to 9.00

----------
# TARGET: Kit D816V (HMC1.2 cells, Kit V560G and D816V) (Homo sapiens, UniProt P10721, D816V/V560G)
# Construct: endogenous in cells
# Sequence (P10721 26-976 V560G/D816V): as the sequence (P10721 26-976 D816V) above, with V535G counted along it
# PROTOCOL_NOTES: HMC1.2 autophosphorylation assay (AlphaLISA, phospho-Y719 c-Kit)
# RECORDED_CONDITIONS: Kit autophosphorylation at tyrosine 719, 90 minutes, read-out: Cellular Activity
pIC50: −log10 of the molar value.
Answer each item with its documented pIC50.

Past entries and their recorded results:
FC(F)(F)CN1CCc2ccc(Nc3ncnc(N4CCN(c5ncc(Cc6ccccc6)cn5)CC4)n3)cc2C1 6.00 to 7.00
CN1CCO[C@@H](Cn2cc(Nc3ncnc(N4CCN(c5ncc(Cc6ccccc6)cn5)CC4)n3)cn2)C1 7.00 to 8.00
CC(C)(O)Cn1cc(Nc2ncnc(N3CCN(c4ncc(Sc5ccc(F)cc5)cn4)CC3)n2)cn1 7.00 to 8.00

Field: next molecule
Asked: Please tell me: pIC50 of "Fc1cccc(Sc2cnc(N3CCN(c4ncnc(Nc5cnn(C[C@@H]6CNCCO6)c5)n4)CC3)nc2)c1" , system Kit D816V (HMC1.2 cells, Kit V560G and D816V) (Homo sapiens, UniProt P10721, D816V/V560G)?
Given back: 6.00 to 7.00
